# Test system: AR mRNA
# Procedure Text: Dose-dependent antisense inhibition of human AR in HuVEC cells (electroporation, qRT-PCR RTS3559, IC50)
# Format: cell-based
# Condition: Table 29; 3000.0 nM, HuVEC, electroporation, approximately 16 hours
Oligonucleotides are written 5' to 3', each unit as a sugar letter and its base; * is a phosphorothioate linkage, no mark a phosphodiester; rarer units and linkages stand in square brackets, end groups in braces. Plain capitals give the bases only. k = constrained ethyl (cEt); [5mC] = 5-methylcytosine; d = 2'-deoxy (DNA)
Would you mind telling me the reported percent inhibition of AR, 3000.0 nM of each entry?
Reply with just the number (in %).

[ask] Under AR mRNA: percent inhibition of AR, 3000.0 nM value of 583559 (antisense kA*kG*kT*d[5mC]*dT*dT*dT*dA*dG*d[5mC]*dA*dG*d[5mC]*kT*kT*kT) [compound 583559] ?
[reply] 80

[ask] Under AR mRNA: percent inhibition of AR, 3000.0 nM value of 583571 (antisense kT*k[5mC]*kA*dG*dT*d[5mC]*d[5mC]*dT*dA*d[5mC]*d[5mC]*dA*dG*kG*k[5mC]*kA) [compound 583571] ?
[reply] 59

[ask] Under AR mRNA: percent inhibition of AR, 3000.0 nM value of 583584 (antisense k[5mC]*k[5mC]*kG*dA*d[5mC]*dT*dG*dA*dG*dG*d[5mC]*dA*dG*k[5mC]*kT*kG) [compound 583584] ?
[reply] 73

[ask] Under AR mRNA: percent inhibition of AR, 3000.0 nM value of 549372 (kA*kA*kG*dT*dT*dG*dT*dA*dG*dT*dA*dG*dT*k[5mC]*kG*k[5mC]) [compound 549372] ?
[reply] 91

###

# Test system: AR mRNA
# Procedure Text: Antisense inhibition of human AR in HuVEC cells, single concentration (electroporation, qRT-PCR RTS3559)
# Assay type: cell-based
# Condition: 500 nM ASO, ~24 h, Table 18
Oligonucleotides are written 5' to 3', each unit as a sugar letter and its base; * is a phosphorothioate linkage, no mark a phosphodiester; rarer units and linkages stand in square brackets, end groups in braces. Plain capitals give the bases only. k = constrained ethyl (cEt); [5mC] = 5-methylcytosine; d = 2'-deoxy (DNA)
Classification field: enter criterion met for % inhibition values not below 40%, criterion not met for values below it.

[ask] Tell me whether % inhibition is at least 40% here: 583712 (antisense k[5mC]*k[5mC]*kT*dT*dG*dA*dG*d[5mC]*dT*dT*dG*dG*d[5mC]*kT*kG*kA) [compound 583712]
[reply] criterion not met

[ask] Tell me whether % inhibition is at least 40% here: 583736 (antisense kT*kG*kG*dA*dT*d[5mC]*dA*d[5mC]*dT*dT*d[5mC]*dG*d[5mC]*kG*k[5mC]*kA) [compound 583736]
[reply] criterion met

[ask] Tell me whether % inhibition is at least 40% here: 583719 (antisense kG*kT*kA*dG*dG*dT*d[5mC]*dT*dT*dG*dG*dA*d[5mC]*kG*kG*k[5mC]) [compound 583719]
[reply] criterion not met

[ask] Tell me whether % inhibition is at least 40% here: 583700 (antisense kG*kA*kA*dG*dA*dG*dT*dT*d[5mC]*dA*dA*d[5mC]*dA*kG*kG*k[5mC]) [compound 583700]
[reply] criterion not met

[ask] Tell me whether % inhibition is at least 40% here: 583713 (antisense kA*kT*k[5mC]*d[5mC]*dT*dT*dG*dA*dG*d[5mC]*dT*dT*dG*kG*k[5mC]*kT) [compound 583713]
[reply] criterion not met

[ask] Tell me whether % inhibition is at least 40% here: 549372 (kA*kA*kG*dT*dT*dG*dT*dA*dG*dT*dA*dG*dT*k[5mC]*kG*k[5mC]) [compound 549372]
[reply] criterion not met

[ask] Tell me whether % inhibition is at least 40% here: 583747 (antisense kG*k[5mC]*kT*dG*d[5mC]*dG*d[5mC]*dT*d[5mC]*dG*d[5mC]*dG*dG*k[5mC]*k[5mC]*kT) [compound 583747]
[reply] criterion not met

[ask] Tell me whether % inhibition is at least 40% here: 583688 (antisense kG*k[5mC]*kG*dG*dT*dA*dG*dT*d[5mC]*dG*d[5mC]*dT*dG*k[5mC]*kA*kG) [compound 583688]
[reply] criterion not met

[ask] Tell me whether % inhibition is at least 40% here: 583728 (antisense kG*k[5mC]*kT*d[5mC]*dT*dG*dG*dA*dA*d[5mC]*dA*dG*dA*kT*kT*k[5mC]) [compound 583728]
[reply] criterion met

[ask] Tell me whether % inhibition is at least 40% here: 583731 (antisense k[5mC]*kG*k[5mC]*dG*d[5mC]*dA*d[5mC]*dG*d[5mC]*dT*d[5mC]*dT*dG*kG*kA*kA) [compound 583731]
[reply] criterion not met

[ask] Tell me whether % inhibition is at least 40% here: 549458 (kG*kT*kT*dG*dA*dT*dT*dT*dA*dA*dT*dG*dG*kT*kT*kG) [compound 549458]
[reply] criterion met
